RUN DESCRIPTION: Lipophilicity determination by RP-HPLC (capacity factor k / log k)
Type: physicochemical
CONDITION DETAILS: C18 column, MeOH 70% / H2O 30%, isocratic
Readings of log k for the listed molecules

SUBSTANCE SMILES: Cc1ccc(NC(=O)[C@@H](NC(=O)c2ccc(Cl)cc2O)C(C)C)cc1
log k: 0.5902

SUBSTANCE SMILES: O=C(N[C@H](Cc1ccccc1)C(=O)Nc1ccc(Br)cc1)c1cc(Cl)ccc1O
log k: 0.7673

SUBSTANCE SMILES: O=C(N[C@@H](Cc1ccccc1)C(=O)Nc1ccc(Br)cc1)c1cc(Cl)ccc1O
log k: 0.7779

SUBSTANCE SMILES: CC(C)[C@H](NC(=O)c1ccc(Cl)cc1O)C(=O)Nc1ccc(Cl)cc1
log k: 0.6839

SUBSTANCE SMILES: O=C(N[C@@H](Cc1ccccc1)C(=O)Nc1ccc(Cl)c(Cl)c1)c1cc(Cl)ccc1O
log k: 0.9485

SUBSTANCE SMILES: CC(C)[C@@H](NC(=O)c1cc(Cl)ccc1O)C(=O)Nc1ccc(Cl)cc1
log k: 0.6125

SUBSTANCE SMILES: O=C(N[C@H](Cc1ccccc1)C(=O)Nc1ccc(Cl)cc1)c1cc(Cl)ccc1O
log k: 0.7329

SUBSTANCE SMILES: CC(C)[C@H](NC(=O)c1cc(Cl)ccc1O)C(=O)Nc1cccc(Cl)c1
log k: 0.6124

---

System: Mycobacterium avium MA CNCTC My 330/88
RUN DESCRIPTION: In vitro antimycobacterial evaluation
Type: cell-based
CONDITION DETAILS: 21h, IC90 value
Readings of MIC for the listed molecules
PROPERTY NAME: MIC (µM)

MOLECULE: O=C(N[C@H](Cc1ccccc1)C(=O)Nc1ccc(Cl)cc1)c1ccc(Cl)cc1O
RESULT OPERATOR: =
REPORTED: 32
//
MOLECULE: O=C(N[C@H](Cc1ccccc1)C(=O)Nc1cccc(Cl)c1)c1cc(Cl)ccc1O
RESULT OPERATOR: =
REPORTED: 32
//
MOLECULE: NNC(=O)c1ccncc1 [INH, isoniazid, reference compound]
RESULT OPERATOR: >
REPORTED: 250
//
MOLECULE: CC(C)[C@H](NC(=O)c1cc(Cl)ccc1O)C(=O)Nc1ccc(Cl)cc1
RESULT OPERATOR: =
REPORTED: 62.5
//
MOLECULE: C[C@@H](NC(=O)c1cc(Cl)ccc1O)C(=O)Nc1ccc(Cl)cc1
RESULT OPERATOR: =
REPORTED: 125

---

System: Mycobacterium avium MA CNCTC My 330/88
RUN DESCRIPTION: In vitro antimycobacterial evaluation
Assay type: cell-based
CONDITION DETAILS: 21h, IC90 value
PROPERTY NAME: MIC (µM)

COMPOUND: CC(C)[C@@H](NC(=O)c1cc(Cl)ccc1O)C(=O)Nc1ccc(Cl)cc1 [8j]
PROPERTY NAME: MIC
RESULT OPERATOR: =
REPORTED: 62.5
--
COMPOUND: C[C@@H](NC(=O)c1ccc(Cl)cc1O)C(=O)Nc1ccc(Cl)cc1 [9b]
PROPERTY NAME: MIC
RESULT OPERATOR: =
REPORTED: 125
--
COMPOUND: CC(C)[C@H](NC(=O)c1cc(Cl)ccc1O)C(=O)Nc1cccc(Cl)c1 [8d]
PROPERTY NAME: MIC
RESULT OPERATOR: =
REPORTED: 125
--
COMPOUND: O=C(CNC(=O)c1cc(Cl)ccc1O)Nc1cccc(Cl)c1 [8a]
PROPERTY NAME: MIC
RESULT OPERATOR: =
REPORTED: 62.5
--
COMPOUND: O=C(N[C@H](Cc1ccccc1)C(=O)Nc1ccc(Cl)c(Cl)c1)c1cc(Cl)ccc1O [8r]
PROPERTY NAME: MIC
RESULT OPERATOR: >
REPORTED: 1000
--
COMPOUND: CC(C)[C@H](NC(=O)c1cc(Cl)ccc1O)C(=O)Nc1ccc(Cl)c(Cl)c1 [8o]
PROPERTY NAME: MIC
RESULT OPERATOR: =
REPORTED: 125
--
COMPOUND: O=C(CNC(=O)c1cc(Cl)ccc1O)Nc1ccc(Cl)c(Cl)c1 [8m]
PROPERTY NAME: MIC
RESULT OPERATOR: =
REPORTED: 500
--
COMPOUND: O=C(N[C@H](Cc1ccccc1)C(=O)Nc1ccc(Br)cc1)c1cc(Cl)ccc1O [8v]
PROPERTY NAME: MIC
RESULT OPERATOR: =
REPORTED: 250
--
COMPOUND: O=C(N[C@@H](Cc1ccccc1)C(=O)Nc1ccc(Cl)c(Cl)c1)c1cc(Cl)ccc1O [8q]
PROPERTY NAME: MIC
RESULT OPERATOR: >
REPORTED: 1000
